All values here come from patent US9868737B2.

target: mTOR kinase (Homo sapiens)
Below, each entry is listed alongside its reported IC50.

COc1ncc(-c2ccc3nccc(=O)n3c2)cc1NS(=O)(=O)c1ccc(Cl)s1    0.001 to 0.01 µM

// next item, IC50 requested
Request: # returns recorded IC50 (system: mTOR kinase (Homo sapiens)) for COc1ncc(-c2ccc3ncc(Cl)c(=O)n3c2)cc1NS(=O)(=O)c1ccc(Cl)s1
Response: ≤ 0.001 µM

###

Below, each entry is listed alongside its reported pIC50.
test system: MCF-7 cells; assay: In vitro test of cell activity (MCF-7 cells, insulin stimulation, ELISA-One fluorescence); format: cell-based; conditions: Homo sapiens, MCF7, MCF-7 cells; read-out: IC50 p-p70S6K
pIC50: −log10 of the molar value.

These solved cases illustrate the format of a correct answer.
COc1ncc(-c2ccc3ncc(F)c(=O)n3c2)cc1NS(=O)(=O)c1ccc(F)cc1F    ≥ 7.30
COc1ncc(-c2ccc3nccc(=O)n3c2)cc1NS(=O)(=O)c1ccc(F)cc1F    7.00 to 7.30
COCOc1cnc2ccc(-c3cnc(OC)c(NS(=O)(=O)c4ccc(F)cc4F)c3)cn2c1=O    ≥ 7.30

// next item, pIC50 requested
Request: Data request, read-out pIC50, for COc1ncc(-c2ccc3ncc(Cl)c(=O)n3c2)cc1NS(=O)(=O)c1cnc(C)n1C
Response: 7.00 to 7.30

###

System: MCF-7 cells
Assay: In vitro test of cell activity (MCF-7 cells, insulin stimulation, ELISA-One fluorescence)
Type: cell-based
Conditions: Homo sapiens, MCF7, MCF-7 cells; read-out: IC50 p-p70S6K
Description: Example In Vitro Tests of Cell Activities Experimental Steps and Methods: 1) MCF-7 cells were inoculated at the density of 2.5×10^4 cells/well into 96-well plates (the culture medium used should be a complete culture medium containing 10% FBS). 2) On the next day, the medium in each well was drawn out. […] 9) The number of strips of ELISA-one micro-well plate that is required was calculated. […] 15) The corresponding ELISA-One filter group was assembled and used to read the fluorescence signal intensity.
pIC50: −log10 of the molar value.
Below, each entry is listed alongside its reported pIC50.

CCOc1cnc2ccc(-c3cnc(OC)c(NS(=O)(=O)c4ccc(F)cc4Cl)c3)cn2c1=O    6.60 to 7.00
COc1ncc(-c2ccc3ncc(Cl)c(=O)n3c2)cc1NS(=O)(=O)c1sccc1Cl    ≥ 7.30
COc1ncc(-c2ccc3ncc(F)c(=O)n3c2)cc1NS(=O)(=O)c1ccccc1Cl    ≥ 7.30
COc1ncc(-c2ccc3ncc(F)c(=O)n3c2)cc1NS(=O)(=O)c1ccc(F)cc1C    ≥ 7.30
COc1ncc(-c2ccc3ncc(Cl)c(=O)n3c2)cc1NS(=O)(=O)c1cccc(C)c1    7.00 to 7.30
COc1ncc(-c2ccc3ncc(Cl)c(=O)n3c2)cc1NS(=O)(=O)c1cccnc1C    7.00 to 7.30
COCCOc1cnc2ccc(-c3cnc(OC)c(NS(=O)(=O)c4ccc(F)cc4F)c3)cn2c1=O    6.60 to 7.00

// next item, pIC50 requested
Request: Data request, read-out pIC50, for COc1ncc(-c2ccc3ncc(Cl)c(=O)n3c2)cc1NS(=O)(=O)c1nc(C)c(C)s1
Response: 7.00 to 7.30

###

tested on: MCF-7 cells; test: In vitro test of cell activity (MCF-7 cells, insulin stimulation, ELISA-One fluorescence); assay type: cell-based; settings: Homo sapiens, MCF7, MCF-7 cells; read-out: IC50 p-p70S6K
pIC50: −log10 of the molar value.
Below, each entry is listed alongside its reported pIC50.

Request: # returns recorded pIC50 (system: MCF-7 cells) for O=c1ccnc2ccc(-c3cnc(Cl)c(NS(=O)(=O)c4ccc(F)cc4F)c3)cn12
Response: < 6.60
